# System: HBV
# Assay explanation: HBV-DNA Antiviral Assay Using HepG2.2.15 Cells (extracellular HBV DNA by qPCR)
# Format: cell-based, hepatitis B virus (HBV)
# Assay setup: Hepatitis B virus; HBV DNA inhibition, HepG2.2.15 cells, extracellular HBV DNA by qPCR; read-out: EC50
Parameter measured: EC50

Here's what some known entries look like.
1. C#C[C@@](CO)(NC(=O)C(=O)c1c(C)c(C(=O)Nc2ccc(F)c(C#N)c2)n(C)c1C)C1CC1 [Compound 63b] : 0.001 to 0.01 µM
2. C#CC(CC)(CC)NC(=O)C(=O)c1c(C)c(C(=O)Nc2ccc(F)c(F)c2)n(C)c1C [Compound 89] : 0.001 to 0.01 µM
3. C=C[C@@](CO)(NC(=O)C(=O)c1c(C)c(C(=O)Nc2ccc(F)c(C(F)(F)F)c2)n(C)c1C)C(F)(F)F [Compound 80b] : 0.001 to 0.01 µM
4. C#C[C@@](CO)(NC(=O)C(=O)c1c(C)c(C(=O)Nc2ccc(F)c(C#N)c2)n(C)c1C)C(F)(F)F [Compound 71b] : 0.001 to 0.01 µM
5. C#C[C@H](NC(=O)C(=O)c1c(C)c(C(=O)Nc2ccc(F)c(C#N)c2)n(C)c1C)C1CC1 [Compound 23a] : < 0.001 µM
6. Cc1c(C(=O)C(=O)NC(C)(C)c2ccncn2)c(C)n(C)c1C(=O)Nc1ccc(F)c(C#N)c1 [Compound 152] : 0.001 to 0.01 µM
7. C#CCNC(=O)C(=O)c1cn(C)c(C(=O)Nc2ccc(F)c(C#N)c2)c1Cl [Compound 10] : 0.01 to 0.1 µM
8. C#C[C@@](C)(CO)NC(=O)C(=O)c1c(C)c(C(=O)Nc2ccc(F)c(C(F)(F)F)c2)n(C)c1C [Compound 66b] : 0.001 to 0.01 µM

Fill in reported EC50 for this entry: Cc1c(C(=O)C(=O)NC(C)(C)c2cscn2)c(C)n(C)c1C(=O)Nc1ccc(F)c(C(F)(F)F)c1 [Compound 141]
0.001 to 0.01 µM

Tell us which EC50 value is on record for C#CC1(NC(=O)C(=O)c2c(C)c(C(=O)Nc3ccc(Br)c(Cl)c3)n(C)c2C)CC(F)(F)C1 [Compound 134]
0.001 to 0.01 µM

State its EC50 for this molecule: Cc1c(C(=O)C(=O)NC(C)(C)c2cn(C)cn2)c(C)n(C)c1C(=O)Nc1ccc(F)c(C(F)(F)F)c1 [Compound 149]
0.1 to 1 µM

Data origin, for the record: patent US12599582B2
